# log10 Ki values compiled below
Target: human recombinant PAK1-KD protein (Homo sapiens)
Sequence (Q13153 270-521 limits assumed): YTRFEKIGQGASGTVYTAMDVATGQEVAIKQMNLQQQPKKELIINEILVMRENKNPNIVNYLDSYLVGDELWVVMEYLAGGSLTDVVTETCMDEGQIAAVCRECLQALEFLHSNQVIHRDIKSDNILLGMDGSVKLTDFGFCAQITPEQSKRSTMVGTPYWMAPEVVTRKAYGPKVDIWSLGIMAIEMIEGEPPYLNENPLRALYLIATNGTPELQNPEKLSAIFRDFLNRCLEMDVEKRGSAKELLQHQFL
Experiment: PAK1-KD (Kinase Domain) IC50 Zlyte Assay (FRET peptide substrate phosphorylation)
Conditions: Z'-LYTE, Biological Example 1
Observation Type: log10 Ki (log10 of the value in nM)

Molecule: CCNc1ncc2cc(-c3ccc(-c4cccc(C)n4)cc3C)c(=O)n(CCOC3CNC3)c2n1 [Example I-31]
Observation Type: log10 Ki
Assay Value: 0.66

Molecule: CCNc1ncc2cc(-c3ccc(-c4cncc(C)n4)cc3Cl)c(=O)n(CC[C@H](O)CO)c2n1 [Example I-83]
Observation Type: log10 Ki
Assay Value: 2.03

Molecule: CCNc1ncc2cc(-c3ccc(-c4cccc(C)n4)cc3C)c(=O)n(CCCCO)c2n1 [Example I-73]
Observation Type: log10 Ki
Assay Value: 1.28

Molecule: CNc1ncc2cc(-c3ccc(-c4cncc(C)n4)cc3Cl)c(=O)n(CC[C@H]3OC[C@@H](N)CO3)c2n1 [Example I-172]
Observation Type: log10 Ki
Assay Value: 1.08

Molecule: CCNc1ncc2cc(-c3ccc(-c4cncc(C)n4)cc3Cl)c(=O)n(CCN3CCNCC3=O)c2n1 [Example I-90]
Observation Type: log10 Ki
Assay Value: 2.51

Molecule: Cc1cncc(-c2ccc(-c3cc4cnc(N)nc4n(C[C@H]4CC[C@H](N)CC4)c3=O)c(Cl)c2)n1 [Example I-9]
Observation Type: log10 Ki
Assay Value: 1.15

Molecule: CCNc1ncc2cc(-c3ccc(-c4cncc(C)n4)cc3Cl)c(=O)n(CCCN)c2n1 [Example I-1]
Observation Type: log10 Ki
Assay Value: 0.92

###

Tested on: group I PAKs in EBC1 cells (MEK1 phosphorylation at S298)
Assay: Cellular PAK IC50 Assay: MEK1 phosphorylation at S298 by HTRF
Format: cell-based
Conditions: Homo sapiens, EBC-1, 2 h treatment, media containing 0.1% FBS, phospho-MEK1 (S298) HTRF
Threshold 200 nM: IC50 strictly smaller gives MET, otherwise NOT MET.

Compound: CCNc1ncc2cc(-c3ccc(-c4cncc(C)n4)cc3Cl)c(=O)n(C[C@H]3CC[C@H](N(C)C)CC3)c2n1
Group Label: NOT MET

Compound: CCNc1ncc2cc(-c3ccc(-c4cccc(C)n4)cc3Cl)c(=O)n(CCOCCN)c2n1
Group Label: MET

Compound: CCNc1ncc2cc(-c3ccc(-c4cncc(C)n4)cc3Cl)c(=O)n(CCOC3CCCNC3)c2n1 (centres unmarked)
Group Label: NOT MET

Compound: CCNc1ncc2cc(-c3ccc(-c4cccc(C)n4)cc3Cl)c(=O)n(CC3CCNCC3)c2n1
Group Label: MET

Compound: CCNc1ncc2cc(-c3ccc(-c4cncc(C)n4)cc3Cl)c(=O)n(CCOC3CCNC3)c2n1 (centres unmarked) [Example I-13]
Group Label: MET

###

Molecular target: human recombinant PAK1-KD protein (Homo sapiens)
Test: PAK1-KD (Kinase Domain) IC50 Zlyte Assay (FRET peptide substrate phosphorylation)
Conditions: Z'-LYTE, Biological Example 1
pKi: −log10 of the molar value.
# label = criterion met if pKi >= 8 else criterion not met

Compound: CCNc1ncc2cc(-c3ccc(-c4cncc(C)n4)cc3Cl)c(=O)n(C[C@H]3CC[C@H](N(C)C)CC3)c2n1
Group Label: criterion not met
--
Compound: CCNc1ncc2cc(-c3ccc(-c4cncc(C)n4)cc3Cl)c(=O)n(CC3CCN(CCO)CC3)c2n1
Group Label: criterion not met
--
Compound: Cc1cncc(-c2ccc(-c3cc4cnc(N)nc4n(C[C@H]4OC[C@H](N)CO4)c3=O)c(Cl)c2)n1
Group Label: criterion not met
--
Compound: Cc1cncc(-c2ccc(-c3cc4cnc(NC(C)C)nc4n(CCC4CNC(=O)C4)c3=O)c(Cl)c2)n1 (single isomer, unassigned) [Example I-98]
Group Label: criterion not met
--
Compound: CCNc1ncc2cc(-c3ccc(-c4cncc(C)n4)cc3Cl)c(=O)n(C[C@H]3CC[C@H](NC)CC3)c2n1
Group Label: criterion met
--
Compound: CNc1ncc2cc(-c3ccc(-c4cccc(C)n4)cc3Cl)c(=O)n(CC3CNCCS3(=O)=O)c2n1 (single isomer, unassigned) [I-197 Isomer B]
Group Label: criterion not met
--
Compound: CNc1ncc2cc(-c3ccc(-c4cccc(C)n4)cc3Cl)c(=O)n(CCOC3CN(C)C3)c2n1
Group Label: criterion not met
--
Compound: CNc1ncc2cc(-c3ccc(-c4cncc(C)n4)cc3Cl)c(=O)n(CC(=O)N(C)C)c2n1
Group Label: criterion not met
--
Compound: CCNc1ncc2cc(-c3ccc(-c4cncc(C)n4)cc3Cl)c(=O)n(CC(C)OC3CNC3)c2n1 (single isomer, unassigned) [Example I-92]
Group Label: criterion not met
--
Compound: Cc1cccc(-c2ccc(-c3cc4cnc(NC5COC5)nc4n(CCOCCN)c3=O)c(C)c2)n1
Group Label: criterion met
--
Compound: CCNc1ncc2cc(-c3ccc(-c4cccc(C)n4)cc3Cl)c(=O)n(CCN3CCNCC3)c2n1
Group Label: criterion met
--
Compound: CCNc1ncc2cc(-c3ccc(-c4cncc(C)n4)cc3Cl)c(=O)n(CCCC(N)=O)c2n1
Group Label: criterion not met
--
Compound: CCNc1ncc2cc(-c3ccc(-c4cccc(C)n4)cc3C)c(=O)n(C3COC4(CCNC4)C3)c2n1 (stereo not shown)
Group Label: criterion met
--
Compound: CCNc1ncc2cc(-c3ccc(-c4cncc(C)n4)cc3Cl)c(=O)n(CC(=O)N3CCNCC3)c2n1
Group Label: criterion not met
--
Compound: CCNCC(O)Cn1c(=O)c(-c2ccc(-c3cncc(C)n3)cc2Cl)cc2cnc(NCC)nc21 (stereo not shown)
Group Label: criterion not met
--
Compound: CNc1ncc2cc(-c3ccc(-c4csc(C)n4)cc3Cl)c(=O)n(C[C@H]3CNCCO3)c2n1
Group Label: criterion not met
--
Compound: CNc1ncc2cc(-c3ccc(-c4cncc(C)n4)cc3Cl)c(=O)n(CC(=O)N3C[C@@H]4C[C@H]3CN4)c2n1
Group Label: criterion not met
